Target: T1, full-length human FOLR1 on stably transfected CHO cells (human, UniProt P15328 25-234)
T1 construct: also called CHO cells stably expressing human FOLR1
T1 sequence (P15328 25-234 limits assumed): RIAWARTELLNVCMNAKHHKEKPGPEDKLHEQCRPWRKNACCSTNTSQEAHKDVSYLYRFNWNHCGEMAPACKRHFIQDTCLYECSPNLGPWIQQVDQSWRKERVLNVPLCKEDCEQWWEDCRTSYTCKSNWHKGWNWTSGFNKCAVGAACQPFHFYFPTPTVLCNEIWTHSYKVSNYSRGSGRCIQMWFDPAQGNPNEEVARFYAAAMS
Assay: FACS on CHO cells stably expressing full-length human FOLR1; PE goat anti-mouse IgG; MFI
Recorded metric: EC50 (read off the curve)

[ask] Would you kindly share the measured EC50 (read off the curve) for mouse anti-FOLR1 mAb F4 (purified from hybridoma supernatant) (antibody, V domains shown, Mouse antibody from hybridoma, purified on Protein A, detected with anti-mouse IgG; also called mAb clone F4) VH: EVQLVESGGGLVKPGGSLKLSCAASGFTFSDYGMHWVRQAPEKGLEWVAFISSGSNTIYYADIVKGRFAISRDNAKNTLFLQMASLRSEDTALYYCARLAEWDVAYWGQGTLVTVSA VL: DIVLTQSPATLSVTPGDRISLSCRASQNINNNLHWYQQKSHESPRLLIKFASQSISGIPSRFSGSGSGTDFTLNINGVETEDFGMYFCQQIYSWPQLTFGAGTRLELK ?
[reply] ~1 µg/mL
